Details: 20.0 µM
Field: relative solubility at 20 uM. Provide a value for each of the compounds that follow.
// no unit string in output, number only

query: Report relative solubility at 20 uM for `O=C(NCCc1cccc2ccccc12)c1cc(=O)[nH]c2ccccc12` please.
result: 0.87

query: # lookup: relative solubility at 20 uM of `O=C(CCl)N1CCN(Cc2nc(-c3cccs3)no2)CC1`
result: 0.98

query: Which value of relative solubility at 20 uM has been reported for `CCOCC1CCN(c2ccc(S(N)(=O)=O)cc2)CC1` in the records?
result: 1

query: Record request: relative solubility at 20 uM value, item `O=C(CCl)N1CCC(c2nc(-c3cccnc3)nc3ccccc23)CC1`
result: 0.92

query: Can you share its relative solubility at 20 uM? I mean this compound: O=C(Nc1nncn1C1CC1)[C@@H]1CCOc2ccc(Cl)cc21 (stereo in doubt)
result: 0.99

query: Bench note: what relative solubility at 20 uM did `O=C(CCl)N1CCN(Cc2cccc(Cl)c2)CC1` show?
result: 1

query: Item under review: Cc1ccccc1C(C(=O)NCC(O)Cn1ccnn1)c1ccccc1 (stereo not drawn) . Reported relative solubility at 20 uM?
result: 1

query: Reported relative solubility at 20 uM, compound `CC(C)NC1CCN(c2ccc(S(N)(=O)=O)cc2)CC1` : ____
result: 1

query: Look at this compound and give its reported relative solubility at 20 uM. `COc1ccc(C(=O)Nc2cccc(/C=C3/C(=O)NC(=O)c4ccccc43)c2)cc1`
result: 0.48

query: # input compound: CC(CCc1ccccc1)N1CCN(C(=O)CCl)CC1 (stereo not drawn) ; wanted: its relative solubility at 20 uM
result: 1

query: So what's the measured relative solubility at 20 uM for this one? Cc1cccc(-c2nnnn2C2CC2C)c1NC(=O)CCc1cccnc1 (stereo not drawn)
result: 1

query: May I ask what relative solubility at 20 uM has been recorded for O=C(CCc1cnn[nH]1)NC(Cn1cccn1)c1ccccc1 (stereo not drawn) ?
result: 1

query: What value of relative solubility at 20 uM has been reported for the following compound? `CCn1c(=O)n(CC(=O)NCc2cnccn2)c2ccccc21`
result: 1

query: Quick one: relative solubility at 20 uM of Cc1ccc(C)c(NC(=O)[C@H]2CNC(=O)C2)c1 (stereo in doubt) ?
result: 0.98

query: relative solubility at 20 uM for C=CC(=O)N(c1ccc(C2CCOC2)cc1)C(C(=O)NC(C)(C)C)c1cccnc1 (stereo not drawn) ?
result: 1.01

query: Looking for the measured relative solubility at 20 uM of C=CC(=O)N(c1ccc(C(C)(C)C)cc1)C(C(=O)Nc1ccccc1OC)c1cccnc1 (stereo not drawn) , can you help?
result: 0.97

query: What does the record list as relative solubility at 20 uM for C=CC(=O)N(c1ccc(S(F)(F)(F)(F)F)cc1)C(C(=O)Nc1c(C)cccc1CC)c1cccnc1 (stereo not drawn) ?
result: 0.85

query: Fill in: relative solubility at 20 uM of `N#Cc1cc(CN2CCN(C(=O)CCl)CC2)c2ccccc2c1` is ___
result: 0.85
